metric.name: melting point

Q: Find the measured melting point of CCSc1cc(C)nc(SCC)c1NC(=O)CCCSc1nc2ccccc2s1 [Compound No. 823] and report it.
A: 119 to 120 °C

Q: Find the measured melting point of Cc1cc(SC(C)C)c(NC(=O)CCCSc2nc3ccccc3s2)c(SC(C)C)n1 [Compound No. 853] and report it.
A: 116 to 117 °C

Q: Find the measured melting point of CCSc1cc(C)nc(SCC)c1NC(=O)CCCCSc1nc2cccc(C(F)(F)F)c2o1 [Compound No. 1270] and report it.
A: 155 to 156 °C

Q: Find the measured melting point of Cc1cc(SC(C)C)c(NC(=O)CCCCSc2nc3ccccc3[nH]2)c(SC(C)C)n1 [Compound No. 864] and report it.
A: 175 to 176 °C

Q: Find the measured melting point of Cc1cc(SC(C)C)c(NC(=O)CCCCCCSc2nc3ccccc3o2)c(SC(C)C)n1 [Compound No. 846] and report it.
A: 76 to 78 °C

Q: Find the measured melting point of CSc1cc(C)nc(SC)c1NC(=O)CCCSc1nc2ccccc2s1 [compound 793] and report it.
A: 131 to 133 °C

Q: Find the measured melting point of CSc1nccc(C)c1NC(=O)CCCCCSc1nc2ccccc2o1 [Compound No. 155] and report it.
A: 122 to 124 °C

Q: Find the measured melting point of CCSc1cc(C)nc(SCC)c1NC(=O)CCCCCCSc1nc2ccccc2[nH]1 [Compound No. 836] and report it.
A: 151 to 156 °C

Q: Find the measured melting point of CCSc1cc(C)nc(SCC)c1NC(=O)CCCCCCCSc1nc2cccc(C(F)(F)F)c2o1 [Compound No. 1273] and report it.
A: 99 to 100 °C

Q: Find the measured melting point of CSc1cc(C)nc(SC)c1NC(=O)CCCCCCSc1nc2c(C)c(Cl)cc(C(C)C)c2o1 [Compound No. 1262] and report it.
A: 129 to 131 °C

Q: Find the measured melting point of Cc1cc(SC(C)C)c(NC(=O)CCCCSc2nc3cccc(C(F)(F)F)c3o2)c(SC(C)C)n1 [Compound No. 1290] and report it.
A: 118 to 120 °C

Q: Find the measured melting point of CSc1cc(C)nc(SC)c1NC(=O)CCCCSc1nc2cccc(C(F)(F)F)c2o1 [Compound No. 1250] and report it.
A: 179 to 180 °C

Q: Find the measured melting point of CSc1cc(C)nc(SC)c1NC(=O)CCCCCCSc1nc2ccccc2[nH]1 [Compound No. 806] and report it.
A: 189 to 192 °C

Q: Find the measured melting point of Cc1cc(SC(C)C)c(NC(=O)CCCCCSc2nc3c(C)c(Cl)cc(C(C)C)c3o2)c(SC(C)C)n1 [Compound No. 1301] and report it.
A: 99 to 101 °C

Q: Find the measured melting point of CSc1cc(C)nc(SC)c1NC(=O)CCCCCCCSc1nc2c(C)c(Cl)cc(C(C)C)c2o1 [Example 95] and report it.
A: 128 to 131 °C

Q: Find the measured melting point of CCSc1cc(C)nc(SCC)c1NC(=O)CCCCCSc1nc2ccccc2o1 [compound 815] and report it.
A: 100 to 103 °C
